Consider the following IC50 values measured on Cytochrome P450 2D6 (Homo sapiens, UniProt P10635).
Sequence (P10635 whole entry): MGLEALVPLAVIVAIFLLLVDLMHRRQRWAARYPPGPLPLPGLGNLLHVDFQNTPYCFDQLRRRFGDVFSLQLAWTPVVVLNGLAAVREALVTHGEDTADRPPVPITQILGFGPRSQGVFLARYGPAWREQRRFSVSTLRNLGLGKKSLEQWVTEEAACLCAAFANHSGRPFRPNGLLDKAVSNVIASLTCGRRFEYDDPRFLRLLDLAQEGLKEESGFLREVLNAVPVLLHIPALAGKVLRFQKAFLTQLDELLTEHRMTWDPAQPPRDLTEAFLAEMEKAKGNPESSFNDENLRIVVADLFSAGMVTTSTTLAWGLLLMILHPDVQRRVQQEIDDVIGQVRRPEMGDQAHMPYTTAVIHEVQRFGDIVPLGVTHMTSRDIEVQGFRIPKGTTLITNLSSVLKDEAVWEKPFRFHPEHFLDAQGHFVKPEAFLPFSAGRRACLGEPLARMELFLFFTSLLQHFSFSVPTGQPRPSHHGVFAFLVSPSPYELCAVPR
The reply should be a number in µM, with the unit left off.

> print(dat)
                                  structure  unit.abbrev  measurement
1  Cn1ccc2c(Nc3cccc(Cl)c3)ncc(C(=O)N3CCOCC3)c21           µM           21

Next molecule, please.
In: Consider the molecule `Cc1c[nH]c2c(Nc3cccc(Cl)c3)ncc(C(=O)N3CCOCC3)c12` and give its recorded IC50.
Out: 14

* * *

# Protocol description: Ratio of drug level in brain to blood in rat 130 mg/kg, po after 3 hrs
# Assay type: ADME, organism-based
# Design: dose 130 mg/kg, route oral
Outcome measure: Kp at 3 h
Answer with a bare number; do not write a unit.

In: Kindly indicate its recorded Kp at 3 h. Item: `Cn1ccc2c(Nc3cccc(Cl)c3)ncc(C(=O)N3CCOCC3)c21`
Out: 1

* * *

# Target entity: Cannabinoid receptor 1 (Homo sapiens, UniProt P21554)
# Sequence (P21554 whole entry): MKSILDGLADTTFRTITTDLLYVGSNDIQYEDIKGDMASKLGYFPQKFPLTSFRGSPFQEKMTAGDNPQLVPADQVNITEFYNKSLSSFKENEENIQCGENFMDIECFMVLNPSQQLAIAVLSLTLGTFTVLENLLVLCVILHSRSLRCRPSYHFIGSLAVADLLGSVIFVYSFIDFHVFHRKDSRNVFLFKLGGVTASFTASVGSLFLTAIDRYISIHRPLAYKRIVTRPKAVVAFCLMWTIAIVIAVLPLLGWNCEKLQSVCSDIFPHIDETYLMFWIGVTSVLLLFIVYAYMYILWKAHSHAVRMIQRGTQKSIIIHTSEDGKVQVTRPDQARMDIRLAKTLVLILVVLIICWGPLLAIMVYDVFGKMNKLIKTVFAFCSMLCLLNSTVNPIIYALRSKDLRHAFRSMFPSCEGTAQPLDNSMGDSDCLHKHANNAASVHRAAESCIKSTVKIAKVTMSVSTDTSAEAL
# Protocol description: Agonist activity at human recombinant cannabinoid CB1 receptor expressed in MMY23 Saccharomyces cerevisiae assessed as degradation of FDGlu to fluorescein after 24 hrs by spectrofluorimetry
# Assay type: functional
pEC50: −log10 of the molar value.
pEC50 overview

Worked set:
> print(dat)
                                  structure  outcome.measure  measurement
1  Cc1c[nH]c2c(Nc3cccc(Cl)c3)ncc(C(=O)NCC3CCOCC3)c12            pEC50       < 4.52
2  COc1cccc(Nc2ncc(C(=O)N3CCOCC3)c3c(C)c[nH]c23)c1            pEC50         4.60
3  Cc1c[nH]c2c(Nc3cccc(Cl)c3)ncc(C(=O)N3CCCC3)c12            pEC50       < 4.52
4  Cc1c[nH]c2c(Nc3cccc(Cl)c3)ncc(C(=O)NCc3ccc(F)cc3)c12            pEC50       < 4.52
5  Cc1cn(C)c2c(Nc3cccc(Cl)c3)ncc(C(=O)N3CCOCC3)c12            pEC50         5.00

In: GET pEC50 | system: Cannabinoid receptor 1 (Homo sapiens, UniProt P21554) | item: `Cc1c[nH]c2c(NC3CCOCC3)ncc(C(=O)N3CCOCC3)c12`
Out: < 4.52

In: Lab note: record pEC50 of `CCC(CC)Nc1ncc(C(=O)N2CCOCC2)c2c(C)c[nH]c12` tested on Cannabinoid receptor 1 (Homo sapiens, UniProt P21554).
Out: < 4.52

In: # return pEC50 for `CCCCCCC(C)(C)c1cc(O)c2c(c1)OC(C)(C)[C@@H]1CC=C(CO)C[C@@H]21` , test system: Cannabinoid receptor 1 (Homo sapiens, UniProt P21554)
Out: 7.40

In: State pEC50 on Cannabinoid receptor 1 (Homo sapiens, UniProt P21554). Entry: `Cc1c[nH]c2c(Nc3cccc(C(F)(F)F)c3)ncc(C(=O)N3CCOCC3)c12`
Out: < 4.52

In: Write down the reported pEC50 (system: Cannabinoid receptor 1 (Homo sapiens, UniProt P21554)) of `COc1ccccc1Nc1ncc(C(=O)N2CCOCC2)c2c(C)c[nH]c12`
Out: < 5.00

Cited source for all entries: ChEMBL document CHEMBL1156052
